A collection of variants and their measured percent of parent
B1: cortactin-GFP (wild type), in 293T cells [not stated] / FLAG-MAP1B-LC1 (wild type) [not stated (human or rat cDNA cloned)] (parent complex)
chain 1: not shown
chain 2: DRSPSPRHPDVSMVDPEALAIEQNLGKALKKDLKEKTKTKKPGTKTKSSSPVKKSDGKSKPLAASPKPAGLKESSDKVSRVASPKKKESVEKAAKPTTTPEVKAARGEEKDKETKNAANASASKSAKTATAGPGTTKTTKSSAVPPGLPVYLDLCYIPNHSNSKNVDVEFFKRVRSSYYVVSGNDPAAEEPSRAVLDALLEGKAQWGSNMQVTLIPTHDSEVMREWYQETHEKQQDLNIMVLASSSTVVMQDESFPACKIEL

variants of: B1; test: coimmunoprecipitation (IP FLAG, immunoblot quantification); n = 4 experiments; parent: 100; read off a plot
Assay metric: percent of parent

Mutation list: chain 2 K95A, chain 2 P96A
Data value: ~110 % of WT

Mutation list: chain 2 K41A, chain 2 P42A
Data value: ~76 % of WT

Mutation list: chain 2 P66A, chain 2 K67A, chain 2 P68A
Data value: ~93 % of WT

Mutation list: chain 2 P145A, chain 2 P146A
Data value: ~36 % of WT

Mutation list: chain 2 K60A, chain 2 P61A
Data value: ~120 % of WT

Mutation list: chain 2 P6A, chain 2 R7A
Data value: ~78 % of WT
